Tested on: PBMC cells obtained from mite allergic patients and non-allergics
assayOverview: Ex vivo stimulation of PBMC: cytokine production (IFN-gamma, IL-9, IL-10, IL-17, IL-31)
Format: cell-based, human
setupConditions: non-allergic individuals; IL-17
endpointName: % non-allergic individuals with cytokine production in ex-vivo T cell assay IL-17
Could you kindly put the unit after your number?

# % non-allergic individuals with cytokine production in ex-vivo T cell assay IL-17 of A025: house dust mite protein; SEQ ID NO: 17 (Der f), 18 (Der p) (protein) QSLFVDYNDYSCGSSQNETNELIQEFKIFKKNINGNENFKKINDFIEKARLFRDNAAKQMLEIDQQLLTLNVIQISQRIKLENNKIQCEKLTKFSELLSMQLLAYEVGMFEFAEEIDPNIDFDRKMKNFLDETSRLFNLAEFEKLEKKFRNATSIEKLKNYIDGELVALNDYINEFLKDIIMSEFTVQSRYYLNFSIEDQVQIDSTLMTFSALKILLNDLKDYLEHLDN = 0%

response.value for A023: house dust mite protein; SEQ ID NO: 23 (Der f), 24 (Der p) (protein) DPVQQRPTLRGVTVRVGPFVKENNGKFEGFIPDLVQAISEKVGFDYTLYLSPDGRYGNVISDGNVTGMIGEVYNKKADFAAADLTMTEARENYITFTEPFMINQLAALIRREDAEGLNTLEDLAKAQETFPKRKRIVLGTLRNGATNYFLSKSDDPLAKKIYEQIKADDQSVVKSISEGVERVDKQGGYAFIMESASAEHEIANNCKLTMLLDWRNLFPRKYAFALPKDSPYLEHFNNAIKQLNSEGKIAELRRKYWANNCAENKTKDDKN (field: % non-allergic individuals with cytokine production in ex-vivo T cell assay IL-17) = 0%
